- system_tested: JAK2 (Homo sapiens, UniProt O60674)
- Construct: made in house; host or cells: SF9 insect cells (baculovirus)
- Sequence (O60674 812-1132): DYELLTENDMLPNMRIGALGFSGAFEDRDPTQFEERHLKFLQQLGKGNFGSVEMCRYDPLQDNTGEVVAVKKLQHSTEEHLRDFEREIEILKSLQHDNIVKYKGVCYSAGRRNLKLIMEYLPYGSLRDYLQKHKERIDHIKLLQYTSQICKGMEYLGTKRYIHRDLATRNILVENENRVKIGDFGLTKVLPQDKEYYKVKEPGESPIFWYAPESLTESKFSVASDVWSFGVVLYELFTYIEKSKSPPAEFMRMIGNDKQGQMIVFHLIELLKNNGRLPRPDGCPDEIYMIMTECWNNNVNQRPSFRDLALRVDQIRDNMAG
- measurement_description: JAK2 inhibition (Table 4)
- Type: biochemical
- conditions_used: read-out: JAK2 Ki
// boundary case: Ki equal to 100 nM maps to N; strictly smaller maps to Y

| compound | system_tested | answer_label |
| --- | --- | --- |
| OC1CCCC(n2cnc3cnc4[nH]ccc4c32)C1 (single isomer, unassigned) [Example 559] | JAK2 (Homo sapiens, UniProt O60674) | Y |
| CC(C)C(=O)NCc1nc2cnc3[nH]ccc3c2n1C1CCN(CCC#N)CC1 | JAK2 (Homo sapiens, UniProt O60674) | Y |
| Fc1cncc(CN2CCC(n3cnc4cnc5[nH]ccc5c43)CC2)c1 | JAK2 (Homo sapiens, UniProt O60674) | Y |
| CC(O)c1nc2cnc3[nH]ccc3c2n1C1CCN(Cc2ccccc2)CC1 (racemic) | JAK2 (Homo sapiens, UniProt O60674) | Y |
| C[C@H](O)c1nc2cnc3[nH]ccc3c2n1C1CCCOC1 (single isomer, unassigned) [Example 461] | JAK2 (Homo sapiens, UniProt O60674) | N |
| CN(Cc1nc2cnc3[nH]ccc3c2n1C1CCN(Cc2ccccc2)CC1)S(C)(=O)=O | JAK2 (Homo sapiens, UniProt O60674) | N |
| O=C(CN1CCOCC1)N1CCC(n2cnc3cnc4[nH]ccc4c32)CC1 | JAK2 (Homo sapiens, UniProt O60674) | N |
| N#CCCN1CCC(n2nnc3cnc4[nH]ccc4c32)CC1 | JAK2 (Homo sapiens, UniProt O60674) | Y |

---

Listed below: Ki values for each entry.
- system_tested: JAK2 (Homo sapiens, UniProt O60674)
- Construct: made in house; host or cells: SF9 insect cells (baculovirus)
- measurement_description: JAK2 inhibition (Table 4)
- Type: biochemical
- conditions_used: read-out: JAK2 Ki

| molecule | Ki |
| --- | --- |
| c1cncc(CN[C@H]2CC[C@H](n3cnc4cnc5[nH]ccc5c43)CC2)c1 | 63.4 nM |
| C[C@@H](O)c1nc2cnc3[nH]ccc3c2n1C1CCC(CC#N)CC1 (stereo partly drawn) [Example 1001] | 13 nM |
| O=C1CCCN1CCc1nc2cnc3[nH]ccc3c2n1C1CCCCC1 | 51.5 nM |
| C[C@@H](O)c1nc2cnc3[nH]ccc3c2n1C1CCN(CCF)CC1 | 124 nM |
| Cc1nc2cnc3[nH]ccc3c2n1C1CCN(CCF)CC1 | 2.16 nM |
| Cc1nc2cnc3[nH]ccc3c2n1C1CCC(NC(=O)N(C)CC(F)(F)F)CC1 (stereo not drawn) | 15.8 nM |
| C[C@@H](O)c1nc2cnc3[nH]ccc3c2n1[C@H]1COCCC1(F)F | 133 nM |
| O=C(CC(F)(F)F)N1CCC[C@@H](n2cnc3cnc4[nH]ccc4c32)C1 | 4.75 nM |
| O=C1CCC(n2cnc3cnc4[nH]ccc4c32)CN1 (racemic) | 389 nM |
| CCN1CCC(n2cnc3cnc4[nH]ccc4c32)C(F)(F)C1 (racemic) | 6 nM |
| N#CCC(=O)N1CCCC(n2c(CC3CC3)nc3cnc4[nH]ccc4c32)C1 (stereo not drawn) | 7.87 nM |
| COC1CN(CCC#N)CCC1n1c(C)nc2cnc3[nH]ccc3c21 (racemic) | 0.89 nM |
| CC(C)NC(=O)Cc1nc2cnc3[nH]ccc3c2n1C1CCNCC1 | 426 nM |
| N[C@H]1CC[C@@H](n2cnc3cnc4[nH]ccc4c32)CC1 | 80.2 nM |
| COCCN(C)C(=O)NC1CCC(n2cnc3cnc4[nH]ccc4c32)CC1 (stereo not drawn) | 42.2 nM |
| Cc1nc2cnc3[nH]ccc3c2n1C1CCC(N2CCC(F)(F)CC2)CC1 (stereo not drawn) | 10.7 nM |
| N#CCC[C@H]1CC[C@H](n2c(CO)nc3cnc4[nH]ccc4c32)CC1 | 2.05 nM |
| c1cc2c(ncc3nc(C4CC4)n(C4CCNCC4)c32)[nH]1 | 367 nM |

---

- system_tested: JAK1 (Homo sapiens, UniProt P23458)
- Construct: made in house; host or cells: SF9 insect cells (baculovirus)
- Sequence (P23458 852-1154): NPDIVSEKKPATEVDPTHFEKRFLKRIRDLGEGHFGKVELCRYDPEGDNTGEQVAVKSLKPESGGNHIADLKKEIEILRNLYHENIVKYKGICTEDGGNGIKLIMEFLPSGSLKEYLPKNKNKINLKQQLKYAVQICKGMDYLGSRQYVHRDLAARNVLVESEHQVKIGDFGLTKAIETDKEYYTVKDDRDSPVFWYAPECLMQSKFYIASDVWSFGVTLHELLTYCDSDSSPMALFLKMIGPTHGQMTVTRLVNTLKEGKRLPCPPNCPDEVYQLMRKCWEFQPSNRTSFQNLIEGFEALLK
- measurement_description: JAK1 inhibition (Table 4)
- Assay type: biochemical
- conditions_used: read-out: JAK1 Ki
result_type: Ki (nM)

| molecule | measure_unit | recorded_measurement |
| --- | --- | --- |
| CC(C)(C)OC(=O)NC1CCCC(n2cnc3cnc4[nH]ccc4c32)C1 (single isomer, unassigned) [Example 477] | nM | 40.7 |
| Cc1nc2cnc3[nH]ccc3c2n1[C@H]1CC[C@@H](NCC(F)(F)F)C1 [Example 719] | nM | 4.07 |
| OCCc1nc2cnc3[nH]ccc3c2n1C1CCN(Cc2ccccc2)CC1 [Example 82] | nM | 3.5 |
| Cc1nc2cnc3[nH]ccc3c2n1C1CCN(C(C)C)CC1 [Example 547] | nM | 27.4 |

---

- system_tested: JAK2 (Homo sapiens)
- Construct: made in house; host or cells: SF9 insect cells (baculovirus)
- measurement_description: JAK2 inhibition (Table 4)
- Assay type: biochemical
- conditions_used: read-out: JAK2 Ki
pKi: −log10 of the molar value.
Output Satisfied for pKi not less than 8; output Not satisfied otherwise.

| structure_as_smiles | answer_label |
| --- | --- |
| c1cc2c(ncc3nc(C4CCC4)n(C4CCNCC4)c32)[nH]1 | Not satisfied |
| Cc1nc2cnc3[nH]ccc3c2n1[C@@H]1CCC[C@](C)(O)C1 | Not satisfied |
| NC(=O)Cc1nc2cnc3[nH]ccc3c2n1C1CCNCC1 | Not satisfied |
| CC(C)NC(=O)Cc1nc2cnc3[nH]ccc3c2n1C1CCN(CCC#N)CC1 | Not satisfied |
| FC(F)c1nc2cnc3[nH]ccc3c2n1C1CCN(Cc2ccccc2)CC1 | Satisfied |

---

Listed below: pKi values for each entry.
- system_tested: JAK3 (Homo sapiens)
- Construct: made in house; host or cells: SF9 insect cells (baculovirus)
- Sequence (P52333 783-1124): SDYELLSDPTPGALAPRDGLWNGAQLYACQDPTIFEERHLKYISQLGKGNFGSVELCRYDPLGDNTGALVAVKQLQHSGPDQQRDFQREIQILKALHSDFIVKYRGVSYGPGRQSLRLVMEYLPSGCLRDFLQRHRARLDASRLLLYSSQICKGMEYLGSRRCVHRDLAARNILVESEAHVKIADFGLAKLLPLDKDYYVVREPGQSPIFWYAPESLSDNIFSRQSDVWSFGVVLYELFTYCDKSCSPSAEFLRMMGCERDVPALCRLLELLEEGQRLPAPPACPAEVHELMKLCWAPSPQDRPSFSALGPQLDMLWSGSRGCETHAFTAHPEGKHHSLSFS
- measurement_description: JAK3 inhibition (Table 4)
- Assay type: biochemical
- conditions_used: read-out: JAK3 Ki
pKi: −log10 of the molar value.
result_type: pKi

| compound | recorded_measurement |
| --- | --- |
| CC(C)(O)CN1CC[C@@H](n2cnc3cnc4[nH]ccc4c32)C1 | 6.30 |
| OC1CCN(Cc2nc3cnc4[nH]ccc4c3n2C2CCCCC2)CC1 | 5.98 |
| CC1(n2cnc3cnc4[nH]ccc4c32)CCN(Cc2ccnc(C#N)c2)CC1 | 6.21 |
| Cc1nc2cnc3[nH]ccc3c2n1C1CCCCNC1 (racemic) | 6.19 |
| CC(C)(C)OC(=O)N1CCCC[C@H]1CN[C@H]1CC[C@H](n2cnc3cnc4[nH]ccc4c32)CC1 | 5.58 |
| CC(=O)NC1CCCC(n2cnc3cnc4[nH]ccc4c32)C1 (single isomer, unassigned) [Example 479] | 6.92 |
| CC(O)c1nc2cnc3[nH]ccc3c2n1C1CCN(CCC#N)CC1 (racemic) | 7.74 |
| CC(O)c1nc2cnc3[nH]ccc3c2n1C1CC2CCC1O2 (stereo not drawn) [Example 848] | 7.14 |
| Cc1noc(CN2CCC(n3c(C(C)O)nc4cnc5[nH]ccc5c43)C(F)C2)n1 (stereo not drawn) | 8.11 |

---

- system_tested: JAK1 (Homo sapiens, UniProt P23458)
- Construct: made in house; host or cells: SF9 insect cells (baculovirus)
- measurement_description: JAK1 inhibition (Table 4)
- Assay type: biochemical
- conditions_used: read-out: JAK1 Ki
pKi: −log10 of the molar value.
Listed below: pKi values for each entry.
result_type: pKi

| compound | system_tested | recorded_measurement |
| --- | --- | --- |
| CC1(C(=O)N2CCC(n3cnc4cnc5[nH]ccc5c43)CC2)CCCN1 (racemic) | JAK1 (Homo sapiens, UniProt P23458) | 6.67 |
| Cc1ccnn1CCc1nc2cnc3[nH]ccc3c2n1C1CCN(CCC#N)CC1 | JAK1 (Homo sapiens, UniProt P23458) | 7.60 |
| O=C(Cc1nc2cnc3[nH]ccc3c2n1C1CCCOC1)N1CCCC1 (racemic) | JAK1 (Homo sapiens, UniProt P23458) | 6.88 |
| CCN1CC[C@@H](n2c(CCNS(C)(=O)=O)nc3cnc4[nH]ccc4c32)[C@@H](F)C1 | JAK1 (Homo sapiens, UniProt P23458) | 8.32 |

---

- system_tested: JAK3 (Homo sapiens)
- Construct: made in house; host or cells: SF9 insect cells (baculovirus)
- measurement_description: JAK3 inhibition (Table 4)
- Format: biochemical
- conditions_used: read-out: JAK3 Ki
result_type: log10 Ki (log10 of the value in nM)

| compound | log10 Ki |
| --- | --- |
| CS(=O)(=O)[C@H]1CC[C@H](n2c(CO)nc3cnc4[nH]ccc4c32)CC1 [Example 651] | 2.63 |
| Cc1nc2cnc3[nH]ccc3c2n1C1CNCCOC1 (centres unmarked) [Example 910] | 2.51 |
| CS(=O)(=O)NCc1nc2cnc3[nH]ccc3c2n1C1CC2CCC1O2 (single isomer, unassigned) [Example 850] | 2.03 |
| CC(C)(C)OC(=O)NC1CCCC(n2cnc3cnc4[nH]ccc4c32)C1 (single isomer, unassigned) [Example 476] | 1.84 |
| CCN1CC[C@@H](n2c(CCNS(C)(=O)=O)nc3cnc4[nH]ccc4c32)[C@@H](F)C1 [Example 808] | 2.11 |
| C[C@@H](O)c1nc2cnc3[nH]ccc3c2n1[C@H]1CCCO1 [Example 660] | 3.02 |
| O=C(C1CC1F)N1CCC[C@@H](n2cnc3cnc4[nH]ccc4c32)C1 (mixture of isomers) [Example 235] | 1.63 |
| NCC(F)(F)c1nc2cnc3[nH]ccc3c2n1C1CCN(Cc2cccnc2)CC1 [Example 588] | 0.76 |
| O[C@H]1CC[C@@H](n2cnc3cnc4[nH]ccc4c32)C1 [Example 709] | 1.75 |
| O=C1CN(Cc2nc3cnc4[nH]ccc4c3n2C2CCOCC2)CCN1 [Example 473] | 3.30 |
| Cc1nc2cnc3[nH]ccc3c2n1C1CCC(N2CCC(C#N)CC2)CC1 (centres unmarked) [Example 768] | 1.93 |
| O=S1(=O)CCCN1CCc1nc2cnc3[nH]ccc3c2n1C1CCCCC1 [Example 922] | 1.71 |
| N#CCCN1CCC(n2c(C#N)nc3cnc4[nH]ccc4c32)CC1 [Example 293] | 1.15 |
| CC(C)(C)NCCOCc1nc2cnc3[nH]ccc3c2n1C1CCN(CCC#N)CC1 [Example 833] | 2.00 |
| Cc1nc2cnc3[nH]ccc3c2n1C1CCCCC1C (mixture of isomers) [Example 516] | 0.73 |
| OCCOc1nc2cnc3[nH]ccc3c2n1C1CCCOC1 (racemic) [Example 780] | 1.87 |
| O=C(Cc1nc2cnc3[nH]ccc3c2n1C1CCCOC1)NC1CCCC1 (racemic) [Example 974] | 1.87 |
